- TARGET ENTITY: KRas^G12R (Homo sapiens, UniProt P01116, G12R)
- Construct: Biotinylated KRas (corresponding to amino acids 1-169, produced at Accelegan Inc.); biotin (biotinylated); purchased Accelegan Inc
- Sequence (P01116 1-169 isoform P01116-2 G12R): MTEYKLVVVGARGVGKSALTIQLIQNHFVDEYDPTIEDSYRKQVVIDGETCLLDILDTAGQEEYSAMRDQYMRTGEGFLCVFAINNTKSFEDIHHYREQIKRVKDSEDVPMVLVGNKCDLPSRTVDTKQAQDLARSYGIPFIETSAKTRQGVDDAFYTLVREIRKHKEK
- PROTOCOL DESCRIPTION: KRas binding assay (TR-FRET tracer displacement), KRas G12R
MEASUREMENT NAME: IC50 (nM)

Some solved entries appear below for comparison.
molecule="CCc1c(F)ccc2cc(O)cc(-c3ncc4c(N5CCCC6(CC6C#N)C5)nc(OC[C@@]56CCCN5C[C@H](F)C6)nc4c3F)c12 (stereo partly drawn)" target_entity="KRas^G12R (Homo sapiens, UniProt P01116, G12R)" measurement_name=IC50 experimental_value=9
molecule=CN(C)C(=O)n1cc(CNc2nc(OC[C@@]34CCCN3C[C@H](F)C4)nc3c(F)c(-c4cc(O)cc5ccc(F)c(Cl)c45)ncc23)c(NC(=O)[C@H]2C[C@H](O)C2)n1 target_entity="KRas^G12R (Homo sapiens, UniProt P01116, G12R)" measurement_name=IC50 experimental_value=3
molecule="CCc1c(F)ccc2cc(O)cc(-c3ncc4c(N5CCC6CCC(C6)C5)nc(OC[C@@]56CCCN5C[C@H](F)C6)nc4c3F)c12 (stereo partly drawn)" target_entity="KRas^G12R (Homo sapiens, UniProt P01116, G12R)" measurement_name=IC50 experimental_value=8

P = C[C@@H]1C[C@@H]1c1c(Cl)cc2[nH]ncc2c1-c1ncc2c(N3CCC[C@]4(C3)NC(=O)NC4=O)nc(OCC34CCCN3CCC4)nc2c1F (atropisomer, axis not shown)
Q = CCc1c(F)ccc2cc(O)cc(-c3ncc4c(N5CCC(N6C(=O)OC7CN(C(C)=O)CC76)CC5)nc(OC[C@@]56CCCN5C[C@H](F)C6)nc4c3F)c12 (stereo partly drawn)
R = Cc1c(Cl)cc2[nH]ncc2c1-c1ncc2c(N3CCC[C@]4(C3)NC(=O)NC4=O)nc(OCC34CCCN3CCC4)nc2c1F
Order field: IC50 | Direction: descending (largest first) Sort the labels as requested; that list is your answer.
R, Q, P
(R: 1880 nM, Q: 349 nM, P: 2 nM)

====

- TARGET ENTITY: KRas^G12C (Homo sapiens, UniProt P01116, G12C)
- Construct: Biotinylated KRas (corresponding to amino acids 1-169, produced at Accelegan Inc.); biotin (biotinylated); purchased Accelegan Inc
- Sequence (P01116 1-169 isoform P01116-2 G12C): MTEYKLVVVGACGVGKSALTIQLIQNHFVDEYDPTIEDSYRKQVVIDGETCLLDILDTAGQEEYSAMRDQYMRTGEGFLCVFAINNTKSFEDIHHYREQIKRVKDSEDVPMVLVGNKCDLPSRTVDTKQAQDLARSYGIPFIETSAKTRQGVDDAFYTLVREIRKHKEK
- PROTOCOL DESCRIPTION: KRas binding assay (TR-FRET tracer displacement), KRas G12C
- EXPERIMENTAL SETUP: TR-FRET tracer displacement, KRas G12C
MEASUREMENT NAME: IC50 (nM)

Some solved entries appear below for comparison.
molecule="Cc1cc2[nH]ncc2c(-c2ncc3c(N4CCCC5(C4)NC(=O)NC5=O)nc(OCC45CCCN4CCC5)nc3c2F)c1C (stereo not drawn)" target_entity="KRas^G12C (Homo sapiens, UniProt P01116, G12C)" measurement_name=IC50 unit_symbol=nM experimental_value=31
molecule=Cc1cc2sncc2c(-c2ncc3c(N4CCC[C@@](C)(O)C4)nc(OCC45CCCN4CCC5)nc3c2F)c1C target_entity="KRas^G12C (Homo sapiens, UniProt P01116, G12C)" measurement_name=IC50 unit_symbol=nM experimental_value=591
molecule="CCc1cccc2cc3[nH]ncc3c(-c3ncc4c(N5CCCC6(CNS(=O)(=O)N6)C5)nc(OC[C@@]56CCCN5C[C@H](F)C6)nc4c3F)c12 (stereo partly drawn)" target_entity="KRas^G12C (Homo sapiens, UniProt P01116, G12C)" measurement_name=IC50 unit_symbol=nM experimental_value=7
molecule=Cc1cc2[nH]ncc2c(-c2ncc3c(N4CCCn5nc(C(=O)N(C)C)cc5C4)nc(OCC45CCCN4CCC5)nc3c2F)c1C target_entity="KRas^G12C (Homo sapiens, UniProt P01116, G12C)" measurement_name=IC50 unit_symbol=nM experimental_value=131

P = O[C@@H]1C[C@H]2C[C@@H]1CN(c1nc(OC[C@@]34CCCN3C[C@H](F)C4)nc3c(F)c(-c4cccc5ccccc45)ncc13)C2
Q = C[C@@]1(O)CCCN(c2nc(OCC34CCCN3CCC4)nc3c(F)c(-c4ccc(F)c5sc(N)nc45)ncc23)C1
R = C[C@@H]1C[C@@H]1c1c(Cl)cc(O)cc1-c1ncc2c(N3CCCn4nc(C(=O)N(C)C)cc4C3)nc(OCC34CCCN3C/C(=C\F)C4)nc2c1F (stereo partly drawn)
S = Cc1cc2[nH]nnc2c(-c2ncc3c(N4CCCn5nc(C(=O)N(C)C)cc5C4)nc(OCC45CCCN4CCC5)nc3c2F)c1C
T = CCc1c(F)ccc2cc(O)cc(-c3ncc4c(N5C[C@@H]6C[C@H](C5)[C@H](O)C6)nc(OCC56CCCN5CC(F)(F)C6)nc4c3F)c12 (stereo partly drawn)
Sort ascending by IC50. Sort the labels as requested; that list is your answer.
R, T, P, S, Q
(R: 2 nM, T: 7 nM, P: 185 nM, S: 1630 nM, Q: 3130 nM)
